# half-life annotations
test.details: clinical
run.parameters: human, in vivo, 30 mg/m2, t1/2
Give just the number in h; leave the unit off.

Illustrative cases are given below, each with its answer.
[
  {
    "compound": "CC[C@@]1(OC(=O)[C@@H](C)O)C(=O)OCc2c1cc1n(c2=O)Cc2cc3c(CN(C)C)c(O)ccc3nc2-1 [TLC-U1, S,R-topotecan lactate]",
    "half-life [h]": 2.66
  },
  {
    "compound": "CC[C@@]1(OC(=O)[C@H](C)O)C(=O)OCc2c1cc1n(c2=O)Cc2cc3c(CN(C)C)c(O)ccc3nc2-1 [TLC-U2, S,S-topotecan lactate]",
    "half-life [h]": 2.32
  }
]

Data request: Any idea what its half-life is? The compound is CC[C@@]1(O)C(=O)OCc2c1cc1n(c2=O)Cc2cc3c(CN(C)C)c(O)ccc3nc2-1 [Topotecan, reference compound]
Data returned: 4.06
